- measurement.notes: In vivo pharmacokinetics (PK) in rats
- study.conditions: male, SD; rat, po, 2.00 mg/kg, plasma
We begin with a simple list: items and their reported Cmax.
experimental.readout: Cmax (ng/mL)

[[record]]
compound = "CCOC(=O)C1=C(CN2CCO[C@H](/C=C/C(=O)O)C2)NC(c2nccs2)=N[C@H]1c1ccc(F)cc1Cl"
experimental_readout = "Cmax"
test_value = 2180

[[record]]
compound = "CCOC(=O)C1=C(CN2C[C@@H](/C=C/C(=O)O)CC(F)(F)C2)NC(c2nccs2)=N[C@H]1c1ccc(F)cc1Cl"
experimental_readout = "Cmax"
test_value = 179

[[record]]
compound = "CCOC(=O)C1=C(CN2CCO[C@H](CCC(=O)O)C2)NC(c2nccs2)=N[C@H]1c1ccc(F)cc1Cl [Control compound 2, reference compound]"
experimental_readout = "Cmax"
test_value = 1250


###

- measurement.notes: In vivo pharmacokinetics (PK) in cynomolgus macaques
- Parameters: species or system male cynomolgus macaques
- study.conditions: male, cynomolgus monkey, 2.5 mg/kg; cynomolgus macaque, po, 2.50 mg/kg, plasma
experimental.readout: AUC(0-t) (ng·h/mL)

[[record]]
molecule = "COC(=O)C1=C(CN2CCO[C@H](/C=C/C(=O)O)C2)NC(c2nccs2)=N[C@H]1c1ccc(F)cc1Cl [10-227 of Example 27]"
experimental_readout = "AUC(0-t)"
test_value = 4420


###

- Tested on: hepatitis type B virus (HBV)
- measurement.notes: Inhibition of HBV DNA replication in HepG2.2.15 cells
- Format: cell-based
- study.conditions: HepG2.2.15, HBV DNA replication
- Description: The inhibitory effect of the compounds of the present invention on hepatitis type B virus (HBV) was tested. Cytotoxicity and effects on nucleic acid (DNA) replication level of the virus (HBV) of the compounds of the present invention were tested at a virus-cell level. HepG2.2.15 cells in the logarithmic growth phase were plated in a 96-well plate at a cell concentration of 40 cells per μL. […]
pEC50: −log10 of the molar value.
experimental.readout: pEC50

[[record]]
compound = "COC(=O)C1=C(CN2CCO[C@H](/C=C/C(=O)O)C2)NC(c2nccs2)=N[C@H]1c1ccc(F)cc1Br [10-229 of Example 28]"
experimental_readout = "pEC50"
test_value = 8.08

[[record]]
compound = "COC(=O)C1=C(CN2CCO[C@H](/C=C/C(=O)O)C2)NC(c2nccs2)=N[C@H]1c1ccc(F)cc1Cl [10-227 of Example 27]"
experimental_readout = "pEC50"
test_value = 8.00

[[record]]
compound = "CCOC(=O)C1=C(CN2C[C@@H](/C=C/C(=O)O)CC(F)(F)C2)NC(c2nccs2)=N[C@H]1c1ccc(F)cc1Cl [10-230 of Example 26]"
experimental_readout = "pEC50"
test_value = 7.95

[[record]]
compound = "CCOC(=O)C1=C(CN2CCC(OCC(=O)O)C(F)(F)C2)NC(c2nccs2)=NC1c1ccc(F)cc1Cl (stereo not drawn) [10-95 of Example 5]"
experimental_readout = "pEC50"
test_value = 6.50

[[record]]
compound = "CCOC(=O)C1=C(CN2C[C@@H](F)[C@H](OCC(=O)O)C2)NC(c2nccs2)=N[C@H]1c1ccc(F)cc1Cl [10-36 of Example 10]"
experimental_readout = "pEC50"
test_value = 7.01

[[record]]
compound = "COC(=O)C1=C(CN2CCO[C@H](/C=C/C(=O)O)C2)NC(c2nccs2)=N[C@H]1c1ccc(F)c(F)c1Br [10-238 of Example 31]"
experimental_readout = "pEC50"
test_value = 7.99

[[record]]
compound = "CCOC(=O)C1=C(CN2CC(F)(F)C2)NC(c2nccs2)=N[C@H]1c1ccc(F)cc1Cl [10-7 of Example 6]"
experimental_readout = "pEC50"
test_value = 6.99

[[record]]
compound = "CCOC(=O)C1=C(CN2CCO[C@H](CCC(=O)O)C2)NC(c2nccs2)=N[C@H]1c1ccc(F)cc1Cl [Control compound 2, reference compound]"
experimental_readout = "pEC50"
test_value = 7.05

[[record]]
compound = "CCOC(=O)C1=C(CN2CCOCC2/C=C/C(=O)O)NC(c2nccs2)=N[C@H]1c1ccc(F)cc1Cl (stereo partly drawn) [10-182 of Example 13]"
experimental_readout = "pEC50"
test_value = 7.21

[[record]]
compound = "CCOC(=O)C1=C(CN2CCOCC2COCC(=O)O)NC(c2nccs2)=N[C@H]1c1ccc(F)cc1Cl (stereo partly drawn) [10-162 of Example 15]"
experimental_readout = "pEC50"
test_value = 6.67

[[record]]
compound = "COC(=O)C1=C(CN2CCO[C@H](/C=C/C(=O)O)C2)NC(c2nccs2)=N[C@H]1c1ccc(F)c(F)c1C [10-239 of Example 32]"
experimental_readout = "pEC50"
test_value = 7.54

[[record]]
compound = "CCOC(=O)C1=C(CN2CCC(O)C(F)(F)C2)NC(c2nccs2)=N[C@H]1c1ccc(F)cc1Cl (single isomer, unassigned) [Isomer B of Example 4]"
experimental_readout = "pEC50"
test_value = 7.46

[[record]]
compound = "CCOC(=O)C1=C(CN2CC(COCC(=O)O)CC(F)(F)C2)NC(c2nccs2)=N[C@H]1c1ccc(F)cc1Cl (stereo partly drawn) [10-136 of Example 16]"
experimental_readout = "pEC50"
test_value = 6.96

[[record]]
compound = "COC(=O)C1=C(CN2CCO[C@H](/C=C/C(=O)O)C2)NC(c2nccs2)=N[C@H]1c1ccc(F)c(F)c1Cl [10-237 of Example 30]"
experimental_readout = "pEC50"
test_value = 7.96

[[record]]
compound = "CCOC(=O)C1=C(CN2CCC(O)C(F)(F)C2)NC(c2nccs2)=NC1c1ccc(F)cc1Cl (stereo not drawn) [10-88 of Example 1]"
experimental_readout = "pEC50"
test_value = 7.61

[[record]]
compound = "CCOC(=O)C1=C(CN2CC(OCC(=O)O)C(F)(F)C2)NC(c2nccs2)=N[C@H]1c1ccc(F)cc1Cl (stereo partly drawn) [10-42 of Example 12]"
experimental_readout = "pEC50"
test_value = 6.78

[[record]]
compound = "CCOC(=O)C1=C(CN2CC(O)C(F)(F)C2)NC(c2nccs2)=N[C@H]1c1ccc(F)cc1Cl (stereo partly drawn) [10-40 of Example 11]"
experimental_readout = "pEC50"
test_value = 8.21

[[record]]
compound = "CCOC(=O)C1=C(CN2CCO[C@H](/C=C/C(=O)O)C2)NC(c2nccs2)=N[C@H]1c1ccc(F)cc1Cl [10-226 of Example 25]"
experimental_readout = "pEC50"
test_value = 8.04

[[record]]
compound = "CCOC(=O)C1=C(CN2C[C@@H](O)[C@H](F)C2)NC(c2nccs2)=N[C@H]1c1ccc(F)cc1Cl [10-34 of Example 9]"
experimental_readout = "pEC50"
test_value = 7.88

[[record]]
compound = "COC(=O)C1=C(CN2CCO[C@H](/C=C/C(=O)O)C2)NC(c2nccs2)=N[C@H]1c1cccc(F)c1Cl [10-240 of Example 33]"
experimental_readout = "pEC50"
test_value = 7.68

[[record]]
compound = "CCOC(=O)C1=C(CN2CCOC(/C=C/C(=O)O)C2)NC(c2nccs2)=N[C@H]1c1ccc(F)cc1Cl (stereo partly drawn) [10-180 of Example 14]"
experimental_readout = "pEC50"
test_value = 7.63


###

- measurement.notes: Cytotoxicity detection (CellTiter-Glo)
- Type: cell-based
- study.conditions: human, HepG2.2.15 cells, highest concentration 150 μM
We begin with a simple list: items and their reported CC50 at 4 days.
experimental.readout: CC50 at 4 days

[[record]]
compound = "COC(=O)C1=C(CN2CCO[C@H](/C=C/C(=O)O)C2)NC(c2nccs2)=N[C@H]1c1ccc(F)c(F)c1Br [10-238 of Example 31]"
test_value = "> 150 µM"

[[record]]
compound = "CCOC(=O)C1=C(CN2CCC(OCC(=O)O)C(F)(F)C2)NC(c2nccs2)=NC1c1ccc(F)cc1Cl (stereo not shown) [10-95 of Example 5]"
test_value = "131 µM"

[[record]]
compound = "CCOC(=O)C1=C(CN2CC(F)(F)C2)NC(c2nccs2)=N[C@H]1c1ccc(F)cc1Cl [10-7 of Example 6]"
test_value = "130 µM"

[[record]]
compound = "COC(=O)C1=C(CN2CCO[C@H](/C=C/C(=O)O)C2)NC(c2nccs2)=N[C@H]1c1ccc(F)cc1Cl [10-227 of Example 27]"
test_value = "> 150 µM"


###

- measurement.notes: In vivo pharmacokinetics (PK) in cynomolgus macaques
- Set-up: species or system male cynomolgus macaques
- study.conditions: male, cynomolgus monkey, 0.5 mg/kg; cynomolgus macaque, iv, 0.50 mg/kg, plasma
experimental.readout: AUC(0-t) (ng·h/mL)

[[record]]
smiles_data = "COC(=O)C1=C(CN2CCO[C@H](/C=C/C(=O)O)C2)NC(c2nccs2)=N[C@H]1c1ccc(F)cc1Cl"
experimental_readout = "AUC(0-t)"
test_value = 2440

